# credit: patent US20230381328A1

tested on: myasthenogenic antibody mAB 198; test: Peptide microarray mimotope screen, binding of mAB 198 to linear and cyclic peptides (fluorescence readout); design: species or system rat; settings: cyclic mimotopes; binding of mAB 198, relative fluorescent signal after normalization against background
Assign labels as follows, please: true for relative signal [%] below 10%; false for relative signal [%] equal to or exceeding 10%.

Worked set:
159 (NPADYGY) [compound 159] ... false
122 (RLRYNPADY) [compound 122] ... false
187 (VRLRLNPADYG) [compound 187] ... true
198 (LRFNPAD) [compound 198] ... true

I wonder whether 146 (GNPADYGGI) [compound 146] has relative signal [%] below 10%. Can you tell? false

186 (GSLRWNPADYQ) [compound 186] , same question. true
